Measured values drawn from ChEMBL document CHEMBL3232724 for this set.

# assay.procedure: Octanol-water distribution coefficient, log D of the compound at pH 8.25 by shake flask method
# Assay type: physicochemical
endpoint.name: logD
Simply state the number, no unit and no words.

Input line: Item under review: O=C(c1ccccc1)c1cc(C(=O)C(F)(F)F)n(-c2ccc(O)c(F)c2)c1 . Reported logD?
Output line: 3.3

---

# assay.procedure: Octanol-water distribution coefficient, log D of the compound at pH 12 by shake flask method
# Assay type: physicochemical
endpoint.name: logD

Input line: Which logD is listed for O=C(c1ccccc1)c1cc(C(=O)C(F)(F)F)n(-c2ccc(O)c(F)c2)c1 ?
Output line: -0.38

---

# assay.procedure: Octanol-water distribution coefficient, log D of the compound at pH 7.8 by shake flask method
# Assay type: physicochemical
endpoint.name: logD
Could you keep your reply to the number by itself?

Input line: Fill blank: measured logD of the compound O=C(c1ccccc1)c1cc(C(=O)C(F)(F)F)n(-c2ccc(O)c(F)c2)c1 is ____.
Output line: 3.5

---

Reported inhibition values follow for various molecules
# assay.system: Aldo-keto reductase family 1 member B1 (Rattus norvegicus)
# assay.procedure: Inhibition of Fischer-344 rat lens ALR2 using D, L-glyceraldehyde as substrate at 100 uM by spectrophotometry
# Assay type: tissue-based
# condition.summary: Lens of camera-type eye
Remember to put the unit after the number in your answer.

{"columns": ["sample.smiles", "value.reported"],
 "data": [
  ["O=C(c1ccccc1)c1ccn(-c2cccc(O)c2)c1", "21.5%"],
  ["O=C(c1ccccc1)c1cccn1-c1ccc(O)c(F)c1", "37.2%"],
  ["O=C(c1ccccc1)c1ccn(-c2ccc(F)c(F)c2)c1", "5.81%"],
  ["O=C(c1ccc(-c2ccccc2)cc1)c1ccn(-c2ccc(O)c(F)c2)c1", "14.2%"],
  ["O=C(c1ccccc1)c1ccn(-c2ccccc2O)c1", "16.1%"]
]}

Input line: I am curious: what inhibition value has been reported for O=C(c1ccccc1)c1ccn(-c2ccc(/C=N/O)c([N+](=O)[O-])c2)c1 ?
Output line: 60.5%

Input line: Looking for the measured inhibition of O=C(c1ccccc1)c1ccn(-c2ccc(O)c(/C=N/O)c2)c1 , can you help?
Output line: 35.3%

Input line: What inhibition value was documented for this molecule, O=C(c1ccccc1)c1ccn(-c2ccc(/C=N/O)c(O)c2)c1 ?
Output line: 33.7%

Input line: Any idea what inhibition was measured for COc1ccc(C(=O)c2cccn2-c2ccc(O)c(F)c2)cc1 ?
Output line: 43.7%

Input line: Suppose we examine the molecule O=C(c1ccccc1)c1ccn(-c2cccc(/C=N/O)c2O)c1 ; what inhibition value has been reported?
Output line: 23.5%

Input line: inhibition lookup needed for O=C(c1ccccc1)c1ccn(-c2ccc([N+](=O)[O-])c(/C=N/O)c2)c1 , thanks.
Output line: 36.3%

---

# assay.system: Aldo-keto reductase family 1 member A1 (Rattus norvegicus)
endpoint.name: pIC50
// pIC50 is dimensionless: -log10 of concentration (M)

{"columns": ["sample.smiles", "value.reported"],
 "data": [
  ["O=C(c1ccn(-c2ccc(O)c(F)c2)c1)c1ccc(Br)cc1F", 4.45],
  ["COc1cccc(C(=O)c2ccn(-c3ccc(O)c(F)c3)c2)c1", 4.54],
  ["O=C(c1ccccc1)c1cc(C(=O)C(F)F)n(-c2ccc(O)c(F)c2)c1", 4.92],
  ["O=C(c1ccccc1)c1cc(C(=O)C(F)(F)F)n(-c2ccc(O)c(F)c2)c1", 4.69]
]}

Kindly review the next molecule as well.
Input line: What pIC50 value was documented for this molecule, COc1ccc(C(=O)c2ccn(-c3ccc(O)c(F)c3)c2)cc1 ?
Output line: 4.58

---

# assay.procedure: Octanol-water distribution coefficient, log D of the compound at pH 7 by shake flask method
# Assay type: physicochemical
endpoint.name: logD

Input line: Recorded logD of O=C(c1ccccc1)c1cc(C(=O)C(F)F)n(-c2ccc(O)c(F)c2)c1 , please.
Output line: 3.41

---

In this section, each of the compounds is paired with its reported logD.
# assay.procedure: Octanol-water distribution coefficient, log D of the compound at pH 7.4 by shake flask method
# Assay type: physicochemical
Enter a number only.

{"columns": ["sample.smiles", "logD"],
 "data": [
  ["O=C(c1ccccc1)c1cc(C(=O)C(F)F)n(-c2ccc(O)c(F)c2)c1", 3.1]
]}

Please examine the following record next.
Input line: I am curious: what logD value has been reported for O=C(c1ccccc1)c1cc(C(=O)C(F)(F)F)n(-c2ccc(O)c(F)c2)c1 ?
Output line: 3.86

---

# assay.procedure: Octanol-water distribution coefficient, log D of the compound at pH 11 by shake flask method
# Type: physicochemical
endpoint.name: logD
Quick one: just the number, no unit, thanks!

{"columns": ["sample.smiles", "logD"],
 "data": [
  ["O=C(c1ccccc1)c1cc(C(=O)C(F)F)n(-c2ccc(O)c(F)c2)c1", 0.1]
]}

Consider the additional compound presented here.
Input line: Dear colleague, I am looking for the recorded logD of the following compound: O=C(c1ccccc1)c1cc(C(=O)C(F)(F)F)n(-c2ccc(O)c(F)c2)c1
Output line: 0.66

---

# assay.system: Aldo-keto reductase family 1 member A1 (Rattus norvegicus, UniProt P51635)
# Sequence (P51635 whole entry, looked up): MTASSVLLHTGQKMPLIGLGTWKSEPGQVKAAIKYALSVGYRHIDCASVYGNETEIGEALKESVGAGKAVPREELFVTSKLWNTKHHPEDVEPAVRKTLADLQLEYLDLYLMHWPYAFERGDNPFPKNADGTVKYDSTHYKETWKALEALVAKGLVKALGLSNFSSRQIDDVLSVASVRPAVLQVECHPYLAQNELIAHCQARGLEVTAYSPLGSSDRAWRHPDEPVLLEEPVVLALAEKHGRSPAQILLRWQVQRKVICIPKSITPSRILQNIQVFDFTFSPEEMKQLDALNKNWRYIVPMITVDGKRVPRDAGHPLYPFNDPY
pIC50: −log10 of the molar value.
endpoint.name: pIC50

Examples with answers:
{"columns": ["sample.smiles", "pIC50"],
 "data": [
  ["O=C(c1ccccc1)c1ccn(-c2ccc(O)cc2)c1", "< 4.00"],
  ["O=C(c1cccn1-c1ccc(O)c(F)c1)C(F)F", "< 4.00"]
]}

Input line: What pIC50 appears in the records for this compound with Aldo-keto reductase family 1 member A1 (Rattus norvegicus, UniProt P51635)? O=C(c1cccn1-c1ccc(O)c(F)c1)C(F)(F)F
Output line: < 4.00
